# assay-details: TLR3 IRF3 reporter activation blockers – cell-based, poly I:C stimulus, luciferase, 10K MLSCN set, primary screen (AID 602277)
# run-parameters: HEK293-TLR3 RL24 IRF3 luciferase reporter, at 10 µM, hits give high values
result-type: inhibition (%)

INSERT INTO assay_data (molecule, observed_measurement) VALUES
  ('C/C=C(\C)c1nnc(NC(=O)C(C)C)s1', -7.26),
  ('Cc1cccc(CC2CC(=O)N(c3ccccc3)C2=O)c1 (centres undefined)', -11.2),
  ('COc1cccc(OC)c1OCCCSc1nc(C)cc(=O)[nH]1', -3.85),
  ('COc1ccccc1-c1nnc(SCc2ccccn2)n1C', -10.3);

* * *

# assay-details: blockers of RIG-like receptor reporter activation – cell-based, Sendai virus stimulus, luciferase, 10K MLSCN set, TLR/RLR signaling modifier project, primary screen (AID 602276);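 also: firefly luciferase from ISG56 promoter only with Renilla not read in this screen; 0% = Sendai virus plus DMSO and 100% = medium plus DMSO without virus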
# run-parameters: HEK293 RL24 IRF3 luciferase reporter, at 10 µM, hits give high values
result-type: inhibition (%)

INSERT INTO assay_data (compound, scale_unit, observed_measurement) VALUES
  ('COCCNC(=O)C(c1cccc(OC)c1)N(Cc1cccs1)C(=O)Cn1nnc2ccccc21 (centres undefined)', '%', 12.4),
  ('COc1cc2c(cc1OC)C(c1cccnc1)CC(=O)N2 (centres undefined)', '%', 9.14),
  ('O=C(Nc1ccc(N2CCOCC2)cc1)C1CC1', '%', 6.17),
  ('CC(C)(C)c1cc(CCC(=O)N2CCNCC2)c(C(C)(C)C)cc1O', '%', 13.9),
  ('CN(C(=O)c1ccco1)c1nnc(C23CC4CC(CC(C4)C2)C3)s1', '%', -30.3),
  ('CCN(C(=O)COC(=O)c1cc(C)n(-c2ccc(F)cc2)c1C)C1CCS(=O)(=O)C1 (centres undefined)', '%', 13.2),
  ('CCOC(=O)c1ccc(NC(=O)CCc2c(C)nc3ncnn3c2C)cc1', '%', -2.81),
  ('O=C(CSc1nc(O)c(Cc2ccccc2)c(=O)[nH]1)Nc1ccccc1', '%', 3.29),
  ('COc1ccc(C(=O)Nc2ccc(S(=O)(=O)Nc3onc(C)c3C)cc2)cc1', '%', 4.94),
  ('COc1ccc(N2CCN(CCCNC(=O)C3CCCN(S(=O)(=O)c4cnc[nH]4)C3)CC2)cc1 (centres undefined)', '%', -10.4),
  ('Cc1ccc(C(c2sc3nc(C)nn3c2O)N2CC(C)OC(C)C2)cc1 (centres undefined)', '%', 16.3),
  ('COc1ccc(S(=O)(=O)N2CCCC(C(=O)N3CCCCCC3)C2)cc1 (centres undefined)', '%', 12),
  ('COc1ccc(CCNC(=O)c2ccncc2)cc1OC', '%', 17.7),
  ('COc1ccc(C(c2nnnn2C2CCCC2)N2CCC(C)CC2)c(OC)c1 (centres undefined)', '%', 2.52);

* * *

# assay-details: endothelial E-selectin expression blockers – imaging, HUVEC, immunofluorescence, MLSMR starter and 10KST1 sets, primary screen (AID 487);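 also: signal is fraction of cell area covered by stained E-selectin grains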
# run-parameters: HUVEC TNFalpha-induced E-selectin immunofluorescence imaging, at 2 µM; hits give high values
result-type: inhibition (%)

INSERT INTO results (chem_smiles, result_type, observed_measurement) VALUES
  ('COc1ccc2ccccc2c1CN1CCN(C)CC1', 'inhibition', -40.6),
  ('CCOC(=O)c1[nH]c(CSc2nnc(-c3ccc(OC)cc3)o2)c(C(=O)OCC)c1C', 'inhibition', -39.2),
  ('COc1ccc(OC)c(NC(=O)CSc2nnc(Cc3cccn3C)n2-c2ccc(F)cc2)c1', 'inhibition', -40.2);

* * *

# assay-details: blockers of RIG-like receptor reporter activation – cell-based, Sendai virus stimulus, luciferase, 10K MLSCN set, TLR/RLR signaling modifier project, primary screen (AID 602276);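 also: firefly luciferase from ISG56 promoter only with Renilla not read in this screen; 0% = Sendai virus plus DMSO and 100% = medium plus DMSO without virus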
# run-parameters: HEK293 RL24 IRF3 luciferase reporter, at 10 µM, hits give high values
result-type: inhibition (%)

INSERT INTO measurements (molecule, scale_unit, observed_measurement) VALUES
  ('N#CC1=C(N)SC(N)=C(C#N)C1c1ccc(C(F)(F)F)cc1', '%', -1.4),
  ('Cc1cc(C)n(-c2ccc(C(=O)Oc3ccc4c(c3)OCO4)cc2)n1', '%', 7.51),
  ('Cc1cc(C)n(C2=NS(=O)(=O)c3ccccc32)n1', '%', -8.5),
  ('Cc1nnc2c3ccccc3c(-c3ccccc3)nn12', '%', 68),
  ('CCOc1cc(-c2nc3ccccn3c2NCC2CCCO2)ccc1O (stereo not drawn)', '%', -9.84),
  ('CCc1nn2c(N3CCOCC3)cc(C)nc2c1-c1ccc(F)cc1', '%', 10.6),
  ('Cc1ccc2[nH]cc(C(=O)CN3CCC4(CC3)OCCO4)c2c1', '%', 4.24),
  ('Cc1cc(C)nc(N(C#N)CC(=O)N2CCC(C(N)=O)CC2)n1', '%', 14.2);

* * *

# assay-details: endothelial E-selectin expression blockers – imaging, HUVEC, immunofluorescence, MLSMR starter and 10KST1 sets, primary screen (AID 487);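 also: signal is fraction of cell area covered by stained E-selectin grains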
# run-parameters: HUVEC TNFalpha-induced E-selectin immunofluorescence imaging, at 2 µM; hits give high values
Reported inhibition values for a set of compounds
result-type: inhibition (%)

INSERT INTO results (compound, scale_unit, observed_measurement) VALUES
  ('Cc1cccc(NC(=O)C2CCCN(C(=O)Nc3ccccc3)C2)c1C (centres undefined)', '%', -9.2),
  ('COC(=O)c1c(C#N)c(N)nc2c1CCC2', '%', 33.1),
  ('CCOc1ccc(S(=O)(=O)n2nc(C)cc2C)c2ccccc12', '%', -52.3),
  ('CCCn1cc(SCC(N)=O)c2ccccc21', '%', -33.9),
  ('Cc1cc(Oc2ccccc2)nc(-c2ccccc2)n1', '%', 62.8),
  ('Cc1cccc(NC(=O)CC(C)(C)C)c1', '%', -1.1),
  ('Cc1ccc2cc(CN(Cc3ccc(F)cc3)Cc3nnnn3C3CCCC3)c(=O)[nH]c2c1', '%', -40.7),
  ('CCOc1cccc(C(=O)N(Cc2ccco2)C2CCS(=O)(=O)C2)c1 (centres undefined)', '%', -9.8),
  ('Nn1c(SCc2csc(-c3ccccc3)n2)nnc1-c1cccs1', '%', -37.9),
  ('O=C(CCNS(=O)(=O)c1cccc2nsnc12)Nc1ccc2c(c1)OCCO2', '%', -28),
  ('Cc1cc(Cl)cc2c1NC(=O)[C@]21[C@@H]2C(=O)N(Cc3ccccc3)C(=O)[C@@H]2[C@@H]2CCCN21', '%', -65.1),
  ('CCOc1ccc(Cc2nn[nH]n2)cc1', '%', -38.6),
  ('N#CCCN1CCN(S(=O)(=O)c2ccc(S(=O)(=O)NC3CCCCC3)cc2)CC1', '%', -47.2),
  ('COc1ccc(C(=O)N2CCN(C(=O)c3ccco3)CC2)cc1OC', '%', -184),
  ('COc1ccccc1N1CC(O)=C(c2nc3ccccc3c(=O)[nH]2)C1=N', '%', -73.7),
  ('O=C1CCCC2=C1C1(CCCC1)N=C(Nc1nc3ccccc3s1)N2', '%', -39.4),
  ('Cc1ccccc1-n1c(Cn2c(=O)sc3ccccc32)nnc1SCC(N)=O', '%', -28.8),
  ('O=C(O)C1CC=CCC1C(=O)NCc1ccccc1 (centres undefined)', '%', -28.4),
  ('C=CCn1c(COc2ccccc2)nnc1SCC(=O)C(C)(C)C', '%', 7.8);

* * *

# assay-details: reduction of polyQ htt aggregates in cells – imaging, exon1htt(103Q)mCFP cells, high-content imaging, primary screen (AID 483);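 also: compound exposure lasted 3 days before fixation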
# run-parameters: exon1htt(103Q)mCFP cell line, aggregate imaging, at 2 µM; hits give high values
Some molecules, each annotated with its measured inhibition of aggregation.
result-type: inhibition of aggregation (%)

INSERT INTO results (molecule, scale_unit, observed_measurement) VALUES
  ('CC1=C(C)[N+](=O)C2CCCCC2N1[O-] (stereo unspecified)', '%', 13.8),
  ('COc1ccc(C2c3c(oc4ccccc4c3=O)C(=O)N2c2ccc(C)cn2)cc1OC (stereo unspecified)', '%', -13.4),
  ('Clc1cccc(N2CCN(Cc3nc(-c4ccccc4)no3)CC2)c1', '%', 8.5),
  ('CC(NC(=O)c1cn(C)c2ccc(S(=O)(=O)N3CCCC3)cc2c1=O)c1ccc2c(c1)OCCO2 (stereo unspecified)', '%', 5.6),
  ('COC(=O)c1c(-c2cccs2)csc1NC(=O)CN1CCOCC1', '%', -6.9),
  ('COc1cc(C2N3CC4(C)CN2CC(C)(C3)C4)ccc1O (stereo unspecified)', '%', 15.8),
  ('CN(C1CCS(=O)(=O)C1)S(=O)C12CC3CC(CC(C3)C1)C2 (stereo unspecified)', '%', -16),
  ('Cc1cc(C(=O)N2CCN(C/C=C/c3ccccc3)CC2)no1', '%', -4.4),
  ('CC(=O)c1cccc(NS(=O)(=O)c2ccc3c(c2)oc(=O)n3C)c1', '%', 0.5),
  ('C=CCOc1ccc(/C(CC)=N/O)c(OC)c1', '%', -5.5),
  ('CCN1CCN(Cc2nc3c(c(=O)[nH]c(=O)n3C)n2Cc2ccccc2Cl)CC1', '%', 7.9),
  ('Cn1c(=O)c2c(nc(SCCOc3ccc4ccc(=O)oc4c3)n2C)n(C)c1=O', '%', 7.2),
  ('OC(CCN1CCOCC1)(c1ccc(Cl)cc1)C1CCCCC1 (stereo unspecified)', '%', -1.2),
  ('COc1cccc(-c2nnc(NC(C)=O)o2)c1', '%', -16.5),
  ('CCOC(=O)N1CCN(C(=O)c2ccc3c(=O)n(Cc4ccc(OC)cc4)c(=S)[nH]c3c2)CC1', '%', 45.2),
  ('Cc1ccc(-c2oc3ccccc3c(=O)c2O)cc1', '%', -15.8),
  ('O=C(Nc1ccccc1C(=O)N1CCN(c2ccccc2)CC1)c1ccco1', '%', 6.3),
  ('Cc1ccc(C)c(NC(=O)CSc2nnc(-c3ccccc3)o2)c1', '%', 18.9),
  ('COc1ccccc1N1CC(C(=O)Nc2cccc(C(=O)O)c2)CC1=O (stereo unspecified)', '%', 10.1),
  ('CCOCCCn1c(=S)[nH]c2cc3c(cc2c1=O)OCO3', '%', -8.1),
  ('c1ccc(C(Cc2nc(-c3ccccn3)no2)c2ccccc2)cc1', '%', 4),
  ('O=C(Oc1cccc2cccnc12)c1cccc(-n2cnnn2)c1', '%', -8.5),
  ('Cc1cnc(C(=O)OCC(=O)Nc2ccc(Oc3ccccc3)cc2)cn1', '%', -29.2),
  ('Cc1c(-n2c(CN3C(=O)c4ccccc4C3=O)nc3ccccc3c2=O)c(=O)n(-c2ccccc2)n1C', '%', -10.1),
  ('C=CCNC(=O)c1cc(-c2ccccc2O)on1', '%', -0.2),
  ('CCN(CC)CCCNS(=O)(=O)c1ccc(OC)cc1', '%', -18);
